Test system: A498 renal
TEST_METHOD_NOTES: NCI tumour cell line growth inhibition, 48 h
TGI values, listed per item
PARAMETER: TGI (µM)

COMPOUND	PARAMETER	RELATION_QUALIFIER	RESULT
Clc1cccc(/C=c2\nc(-c3ccccc3)n3c2nc2ccccc23)c1	TGI	>	100
CS(=O)(=O)Nc1ccc(NCc2cnc3ccc4[nH]cccc4c23)cc1	TGI	=	51.8
C/C(=N\NC(N)=S)C(CN1CCCCC1)C(C1=C(O)c2ccccc2OC1)c1ccccc1 (stereo not given)	TGI	>	100
C=CCc1cccc(/C(O)=C/C(=O)/C=C/c2ccccc2Cl)c1O	TGI	=	45
COc1ccc(C2S/C(=C\c3ccc([N+](=O)[O-])cc3)C(=O)N2NC(=O)Cc2ccccc2)cc1 (stereo not given)	TGI	>	100

###

Test system: KM12 colon
TEST_METHOD_NOTES: NCI tumour cell line growth inhibition, 48 h

MOLECULE	TGI
O=S(C(c1ccccc1)=P(c1ccccc1)(c1ccccc1)c1ccccc1)c1ccc(Cl)cc1 (configuration not stated)	57.2 µM
CCCCc1n(Cc2ccc3ccccc3n2)cc[n+]1Cc1ccc2ccccc2c1	2.11 µM
CN(C)c1ccc(/C=C2\C[C@H]3[C@@H]4CC=C5C[C@@H](O)CC[C@]5(C)[C@H]4CC[C@]3(C)[C@H]2O)cc1	> 100 µM
CC1(C)OC2C(O1)[C@H]1OC(C(Cl)(Cl)Cl)=N[C@H]1C(I)[C@H]2N1C(=O)c2ccccc2C1=O (some centres not stated)	> 100 µM
CN(C(=O)C12C3(C(=O)O)C4C5(C(=O)O)C3C1(C(=O)O)C5C42C(=O)O)C(C)(C)C (configuration not stated)	> 100 µM
COC(=O)CCC(=O)Nc1cc(C)ccc1C	> 100 µM
CC(=S)NC=C(C(N)=O)C(N)=O	> 100 µM

###

Test system: EKVX NSCLC
TEST_METHOD_NOTES: NCI tumour cell line growth inhibition, 48 h
TGI values, listed per item
PARAMETER: TGI (µM)

COMPOUND	RELATION_QUALIFIER	RESULT
COc1ccc(-n2nnc3c(C#N)c(C)c(-c4ccccc4)n3c2=O)cc1	>	26.1
COc1cc(NC(=O)c2cc3ccccc3cc2O)c(OC)cc1Cl	=	5.01
O=C(/C=C/c1ccc(O)c(O)c1)O[C@H]1CCCC[C@@H]1OC(=O)/C=C/c1ccc(O)c(O)c1	=	53.8
CCOc1cc(CCNC)c2c(ccc3ccc(OC)c(O)c32)c1OC	=	36.3
Clc1ccc(C2=Cc3nc2c(-c2ccccc2)c2ccc([nH]2)c(-c2ccccc2)c2nc(c(-c4ccccc4)c4ccc([nH]4)c3-c3ccccc3)C=C2)cc1	>	62.5
NC(CCSCCF)C(=O)O (stereo unspecified)	>	100
CN(CCc1ccccn1)c1ccc2c(c1)Cc1ccccc1-2	=	62
O[C@]12c3ccccc3C1CCCC2N1CCOCC1 (stereo partly specified)	>	100
CCN1Cc2c(/C=C/c3ccccc3)nc3ccc(OC)cc3c2N(c2cccc(Cl)c2)C1	=	3.9
CCOC(=O)/C(=C/c1ccccc1)N(CC)CC	>	100
CCCCc1n(Cc2ccc3ccccc3n2)cc[n+]1Cc1ccc2ccccc2c1	=	11.8
Cc1ccc([N+](=O)[O-])cc1S(=O)(=O)Nc1ccc(C2=NN(C(=O)c3ccccc3)C(c3ccccc3O)C2)cc1 (stereo unspecified)	=	31
COc1ccccc1CNC(=O)/C=C/c1ccc(O)c(O)c1	>	100
COc1ccc(N2C(=O)C3c4[nH]c5ccc(OC)cc5c4C4CCC(c5ccccc5)CC4C3C2=O)cc1 (stereo unspecified)	=	52
OC1CCSc2ccccc21 (stereo unspecified)	>	100
O=c1oc2ccccc2c(O)c1Cc1ccccc1Cc1c(O)c2ccccc2oc1=O	>	100

###

Test system: SR leukemia
TEST_METHOD_NOTES: NCI tumour cell line growth inhibition, 48 h
TGI values, listed per item

MOLECULE	TGI
COc1ccc(-n2nc(C(=O)c3ccccc3)c3nn4c(=O)cc(-c5ccccc5)nc4nc32)cc1	> 100 µM
Cc1nc2sc(C(=O)Nc3cccc(Cl)c3C)c(N)c2cc1C(O)c1ccccc1 (stereo unspecified)	16.6 µM
CN(C)c1cccc2c(S(=O)(=O)NCCCNCCN)cccc12	39.1 µM
NC(=S)N/N=C(/CCN1CCCC1)CC(C1=C(O)C2=CCCCC2OC1=O)c1ccccc1 (stereo unspecified)	> 100 µM
Cc1ccc(S(=O)(=O)Nc2cc(=O)[nH]c3c2CCC3)cc1	> 100 µM
CN(C)C(=S)/N=C(\N)N(C)C	> 100 µM

###

TGI values, listed per item
Test system: SF-539 CNS
TEST_METHOD_NOTES: NCI tumour cell line growth inhibition, 48 h
PARAMETER: TGI

COMPOUND	RESULT
CC1=C(C(=O)NCc2ccccc2)C(c2ccc(N(C)C)cc2)C(C(=O)NCc2ccccc2)=C(C)N1	> 100 µM
c1cc2nnc1SCCSCCCSCCS2	58.2 µM
NC(=S)N/N=C1/C(=O)N(c2ccccc2)C(=O)C1C(=O)Nc1ccccc1 (stereo unspecified)	> 100 µM
CC(C)=CC1(C)/C(=N\O)C(C)(CC(C)C)C(=O)N1O (stereo unspecified)	> 100 µM
Fc1c(F)c(F)c(CSc2nc3ccccc3[nH]2)c(F)c1F	> 100 µM
N#Cc1cc2c(=S)[nH]c(=S)[nH]c2nc1SCc1ccccc1	> 100 µM

###

TGI values, listed per item
Test system: UO-31 renal
TEST_METHOD_NOTES: NCI tumour cell line growth inhibition, 48 h
PARAMETER: TGI

STRUCTURE_NOTATION	PARAMETER	RESULT
O=C(O)c1ccccc1C(=O)Nc1cc2c(cc1Br)-c1ccccc1C2=O	TGI	> 100 µM
COc1cc2c3c(n(CCCN=[N+]=[N-])c(=O)c2cc1OC)-c1ccc(NC(C)=O)cc1C3=O	TGI	> 50 µM
CN(C)c1cccc2c(S(=O)(=O)NCCCNCCN)cccc12	TGI	> 100 µM
CC(=O)Nc1ccc(S(=O)(=O)N/N=C(\C)CN2C(=O)c3ccccc3C2=O)cc1	TGI	> 100 µM

###

System: OVCAR-3 ovarian
TEST_METHOD_NOTES: NCI tumour cell line growth inhibition, 48 h

COMPOUND	TGI
Clc1ccc(C2=Cc3nc2c(-c2ccccc2)c2ccc([nH]2)c(-c2ccccc2)c2nc(c(-c4ccccc4)c4ccc([nH]4)c3-c3ccccc3)C=C2)cc1	> 62.5 µM
Cc1cc(=O)[nH]c(S(=O)(=O)NC(=O)Nc2cccc(Cl)c2)n1	> 100 µM
CC(NNC(=S)N1CCN(c2ccccn2)CC1)c1cccc[n+]1[O-] (stereo not given)	> 100 µM
c1cc2nnc1SCCSCCCSCCS2	> 100 µM
O=C(c1nc2ccc(Cl)cc2[nH]c1=O)C(O)c1cccc([N+](=O)[O-])c1 (stereo not given)	> 100 µM

###

Tested on: SF-268 CNS
TEST_METHOD_NOTES: NCI tumour cell line growth inhibition, 48 h
GI50 values, listed per item
PARAMETER: GI50

MOLECULE	TARGET_OR_TEST_SYSTEM	PARAMETER	RESULT
COC(=O)C(Br)(C(=O)OC)C(Br)C(Br)C(Br)c1ccccc1 (configuration not stated)	SF-268 CNS	GI50	5.5 µM
COc1ncc(-c2ccc3ncnc(Nc4cccc(Cl)c4)c3c2)cc1NS(C)(=O)=O	SF-268 CNS	GI50	1.99 µM
Cc1cc(O)cc(-c2nn(C)cc2-c2cc(N3CCOCC3)nc(-c3cccnc3)n2)c1	SF-268 CNS	GI50	7.29 µM
COc1cc2c3c(n(CCCN=[N+]=[N-])c(=O)c2cc1OC)-c1ccc(NC(C)=O)cc1C3=O	SF-268 CNS	GI50	> 50 µM
Clc1ccc2c(NCCNc3nc(N4CCCCC4)nc4ccccc34)ccnc2c1	SF-268 CNS	GI50	2.39 µM
COc1cc(-c2cn(-c3ccc(F)cc3)c(=O)[nH]2)cc(OC)c1OC	SF-268 CNS	GI50	> 100 µM
COc1ccc(-n2nc(C(=O)c3ccccc3)c3nn4c(=O)cc(-c5ccccc5)nc4nc32)cc1	SF-268 CNS	GI50	39.1 µM
CN1CCC(n2cnc(-c3ccc(F)cc3)c2-c2ccnc(Nc3ccccc3)n2)CC1	SF-268 CNS	GI50	9.91 µM
Nc1ncc(-c2ccc3ncnc(N4CCc5cc(F)c(Cl)cc54)c3c2)cc1C(F)(F)F	SF-268 CNS	GI50	1.24 µM
COc1ccccc1CNC(=O)/C=C/c1ccc(O)c(O)c1	SF-268 CNS	GI50	90.7 µM
O=C(Oc1c(Cl)c(Cl)c(Cl)c(Cl)c1Cl)C1CCCN1C(=O)OCc1ccccc1 (configuration not stated)	SF-268 CNS	GI50	4 µM
NC1=CC(=O)C(=O)c2ccccc21	SF-268 CNS	GI50	18.8 µM

###

System: SF-295 CNS
TEST_METHOD_NOTES: NCI tumour cell line growth inhibition, 48 h
PARAMETER: TGI

MOLECULE	PARAMETER	RESULT
CCN1Cc2c(/C=C/c3ccccc3)nc3ccc(OC)cc3c2N(c2cccc(Cl)c2)C1	TGI	3.6 µM
COc1ccc(N2C(=O)C3c4[nH]c5ccc(OC)cc5c4C4CCC(c5ccccc5)CC4C3C2=O)cc1 (configuration not stated)	TGI	24.2 µM
COc1cc(/C=C2\CC3C4CC[C@H]5C[C@@H](O)CC[C@]5(C)C4CC[C@]3(C)\C2=N\O)cc(OC)c1OC (some centres not stated)	TGI	15.4 µM
CN1CCN(c2ccc3nc(-c4ccc5nc(CCCc6ccc(N(CCCl)CCCl)cc6)[nH]c5c4)[nH]c3c2)CC1	TGI	> 100 µM
Cc1ccc(C2SCc3nc4ccccc4n32)cc1 (configuration not stated)	TGI	7.17 µM
OCC(O)C(OC1OC(CO)C(O)C(O)C1O)c1nn(-c2ccc(Cl)cc2)c2nc3cc(Cl)c(Cl)cc3nc12 (configuration not stated)	TGI	> 100 µM
COc1cc(S(=O)(=O)Nc2ccc(-c3csc(/N=C\c4cccc(Oc5ccccc5)c4)n3)cc2)ccc1Cl	TGI	> 100 µM
